target: Cytochrome P450 3A4 (Homo sapiens); experiment: qHTS Assay for Inhibitors and Substrates of Cytochrome P450 3A4 (AID 884); conditions: recombinant CYP3A4, Luciferin-PPXE luminescence; series mostly up to 57.1 µM; also: nearly all actives have a fitted effect of over 50% in size
Inconclusive results are not listed. Active and inactive are the calls of the source. Calls follow the shape of the dose curve; as a rule, active = well fitted inhibition curve with a large enough effect; inconclusive = small, poorly fitted or top-dose-only effect; inactive = no such curve, though single readings can be large or run the other way.
In this exercise, the only acceptable responses are active, inactive

Task item: Test call, this compound: CN1CCN2c3ccccc3Cc3ccccc3[C@@H]2C1
Reply: inactive

Task item: For CNCCCCCCCCSc1nc(C(C)C)ccc1C(=O)c1cccs1 , which call appears in the assay record?
Reply: active

Task item: Recorded test outcome, item O=c1c(O)cc(C2Oc3cc(O)cc(O)c3CC2O)cc2c(C3Oc4cc(O)cc(O)c4CC3O)cc(O)c(O)c12 (stereo unspecified)
Reply: active

Task item: Name the outcome recorded for COc1cccc(NC(=O)/C=C\c2ccc(Cl)cc2)c1 in the assay.
Reply: active

Task item: Each compound tested received a call. Report the one for O=C1c2ccccc2C(Cc2ccncc2)(Cc2ccncc2)c2ccccc21 .
Reply: active

Task item: Hi, do you know how O=C(O)c1c2ccccc2cc2ccccc12 came out in this test?
Reply: inactive

Task item: Hi, sorry to bother you, what did the test record for NC(N)=NCCC[C@@H](N)C(=O)O ?
Reply: inactive

Task item: What did this assay record as the result for CCS(=O)(=O)N1CCC[C@H]2CN3CCc4cc(OC)ccc4[C@@H]3C[C@@H]21 ?
Reply: active

Task item: What is the recorded call for this compound in the test? O=c1[nH]cnc2ccccc12
Reply: inactive

Task item: // param item: CC(N)=NCCCC[C@H](N)C(=O)O ; yields the recorded call
Reply: inactive

Task item: Field: outcome | Entry: CC(C)=CCC1(CC=C(C)C)C(=O)C(C(=O)c2ccccc2)=C2OC(C)(C)CCC2(CC=C(C)C)C1=O (stereo unspecified)
Reply: active

---

Assay: Primary fluorescence-based thiol-reactive (MSTI) qHTS assay for identification of artifact compounds. (AID 1845221); also: nearly all actives have a fitted effect of over 65% in size
Conditions: MSTI thiol-reactivity probe, 1 h; series mostly up to 53.8 µM
Source text: PI: Alexander Tropsha Ph.D. UNC Eshelman School of Pharmacy University of North Carolina, Chapel Hill, North Carolina Hits from high-throughput screening (HTS) of chemical libraries are often false positives due to their interference with the assay detection technology. […] Using these curated datasets, we developed and validated several Quantitative Structure-Interference Relationship (QSIR) models to predict nuisance behavior. […]
Results filed as inconclusive are left out. Calls of active or inactive are those of the source. The call rests on the fitted dose curve; in most records, active means well fitted inhibition curve with a large enough effect; inconclusive means small, poorly fitted or top-dose-only effect; inactive means no such curve, though single readings can be large or run the other way.
Write down one outcome, taken from active, inactive

Task item: Outcome? C=C1C(=O)O[C@@H]2C[C@@]3(C)CCC[C@H](C)C3=C[C@H]12
Reply: inactive

Task item: How was N#Cc1c[nH]c2c(C(=O)N3CCN(CCc4ccc(F)cc4)CC3)cccc12 classified in this test?
Reply: inactive

Task item: Outcome? O=[N+]([O-])c1ccc(-[n+]2nc(-c3ccccc3)nn2-c2ccc(I)cc2)cc1
Reply: active

Task item: Given O=C(/C=C/n1cnc(-c2cc(C(F)(F)F)cc(C(F)(F)F)c2)n1)NNc1cnccn1 , state the outcome it received in this test.
Reply: inactive

Task item: // param item: Cc1cc(CN)cc(C)c1NC(=O)c1ccc(-c2cc(Cl)ccc2Cl)o1 ; yields the recorded call
Reply: inactive

Task item: Hi team, can someone confirm the assay call for Cc1cc(C)c(NC(=O)N(Cc2ccc3c(c2)Cc2ccccc2-3)C2CCCCCC2)c(C)c1 ?
Reply: inactive

Task item: Called result for Oc1ccc(Nc2nc(-c3ccc(Cl)cc3)cs2)cc1
Reply: active

Task item: Recorded call for CC1OC2O[C@H]3[C@@H](OCC(O)[C@H]3O)OC(=O)C34CCC(C)(C)CC3C3=CCC5C6(C)CC(O)C(OC7OC(CO)C(O)C(O)C7O[C@@H]7OC[C@H](OC(=O)CC(C)(O)CC(=O)OC1C(OC1OCC(O)C(O)C1O)C2O)[C@@H](O)[C@H]7O)C(C)(CO)C6CCC5(C)C3(C)CC4 (stereo partly drawn) ?
Reply: inactive

Task item: Query: recorded result category for C/C=C/C[C@@H](C)[C@@H](O)[C@H]1C(=O)N[C@@H](CC)C(=O)N(C)CC(=O)N(C)[C@@H](CC(C)C)C(=O)N[C@@H](C(C)C)C(=O)N(C)[C@@H](CC(C)C)C(=O)N[C@@H](C)C(=O)N[C@H](C)C(=O)N(C)[C@@H](CC(C)C)C(=O)N(C)[C@@H](CC(C)C)C(=O)N(C)[C@H](C(C)C)C(=O)N1C in this test
Reply: inactive

Task item: Returns: the outcome recorded for N#CCC(C1CCCC1)n1cc(-c2ncnc3[nH]ccc23)cn1 (stereo not drawn) in this assay.
Reply: inactive

Task item: What call does the record list for CC1(C)SC2C(NC(=O)[C@H](C(=O)O)c3ccsc3)C(=O)N2C1C(=O)O (stereo partly drawn) ?
Reply: inactive

Task item: So what was the verdict on CC1(C)CC23[C@@H]4CC(=O)[C@@H]2COC(=O)[C@@H]3CC[C@H]41 in this test?
Reply: inactive

Task item: Could you kindly confirm the outcome this assay logged for C=C1/C(=C/C=C2\CCC[C@]3(C)[C@@H]([C@H](C)/C=C/C(=O)C4CC4)CC[C@@H]23)C[C@@H](O)C[C@@H]1O ?
Reply: inactive

Task item: What call does the record list for C=CC(=O)Nc1cccc(Nc2nc(Nc3ccc(Oc4ccnc(C(=O)NC)c4)cc3)ncc2F)c1 ?
Reply: inactive

Task item: Record lookup: outcome of this test for Fc1ccc(C2CCNC[C@H]2COc2ccc3c(c2)OCO3)cc1 (stereo partly drawn) ?
Reply: inactive

Task item: Tell me the assay call for COc1ccccc1-c1cc(Nc2cccc(CS(N)(=O)=O)c2)ncn1 please.
Reply: inactive

Task item: Which outcome was assigned to OCC(CO)(CO)NCC(O)Cn1c2ccc(Cl)cc2c2cc(Cl)ccc21 (stereo not drawn) in this test?
Reply: inactive

Task item: Dear colleague, could you share the recorded outcome for Cn1nccc1Nc1nccc(-c2ccn([C@H](CO)c3ccc(Cl)c(F)c3)c(=O)c2)n1 when you have a moment?
Reply: inactive

---

test: qHTS drug screen for cell cycle checkpoint inhibitors in PARPi-resistant BRCA-mutant ovarian cancer cell lines. (AID 1963452); settings: PEO1/OlaR viability, CellTiter-Glo luminescence, 96 h; measured here: PEO1 parental Z-AUC; stronger effect = lower value
With a cut-off of 0.06, any Z-AUC strictly below it is called Y; any Z-AUC meeting it or above is called N.

Task item: Problem: For the compound Cc1cc(I)ccc1Nc1c(C(=O)NOCC2CC2)cc(F)c(F)c1F , is Z-AUC under 0.06?
Reply: N

Task item: Take the compound CNc1ncc2cc(-c3cc(NC(=O)NCCC(C)(C)C)c(F)cc3C)c(C)nc2n1 and say whether its Z-AUC is less than 0.06.
Reply: Y

Task item: State whether 0.06 exceeds Z-AUC recorded for O=C(NOCCO)c1ccc2cncn2c1Nc1ccc(I)cc1F .
Reply: N

Task item: Strictly below 0.06: is that where Z-AUC of COc1cc(-c2cc(-c3ccc(N4CCNCC4)cc3)cnc2C)cc(OC)c1OC sits?
Reply: Y

Task item: Field: below-cutoff. Rule: recorded Z-AUC strictly less than 0.06. Subject: C=CC(=O)Nc1cccc(C)c1Nc1ncc2cc(-c3c(Cl)c(OC)cc(OC)c3Cl)ccc2n1
Reply: Y

Task item: Item CC(C)=CCC/C(C)=C/CC/C(C)=C/CSc1ccccc1C(=O)O : Z-AUC beneath 0.06, strictly?
Reply: N

Task item: Please determine if Cc1c[nH]c(/C=C2\C(=O)Nc3ccccc32)c1CCC(=O)O is below 0.06 in terms of Z-AUC.
Reply: N

Task item: Given COc1ccc(S(=O)(=O)N(CCO)c2ccccc2CN(C)C/C=C/c2ccc(Cl)cc2)cc1 , is recorded Z-AUC strictly lower than 0.06?
Reply: Y

Task item: Z-AUC strictly < 0.06 for this compound? COc1ccc(CNC(=O)Nc2ncc([N+](=O)[O-])s2)cc1
Reply: Y

Task item: Decide: Z-AUC of COc1cc([C@@H](CC(=O)O)c2ccc(C)c(CN3C[C@@H](C)Oc4ccccc4S3(=O)=O)c2)cc2nnn(C)c12 strictly below 0.06?
Reply: N

---

assay: P-glycoprotein substrates identified in KB-3-1 adenocarcinoma cell line, qHTS therapeutic library screen (AID 1346986); settings: KB-3-1 parental cells viability, CellTiter-Glo, 72 h; series mostly up to 44.5 µM; also: nearly all actives have a fitted effect of over 60% in size
Inconclusive results are not listed. The source made the active and inactive calls. Calls follow the shape of the dose curve; as a rule, active = well fitted inhibition curve with a large enough effect; inconclusive = small, poorly fitted or top-dose-only effect; inactive = no such curve, though single readings can be large or run the other way.
Outcome field: choose from True (active), False (inactive)

Task item: Hey, what did the test say about Cc1[nH]c(/C=C2\C(=O)Nc3ccccc32)c(C)c1CCC(=O)O ?
Reply: False

Task item: What call does the record list for CCCCCCCCCCCCCC#CC(=O)[C@@H]1COC(C)(C)N1C(=O)OC(C)(C)C ?
Reply: False

Task item: What was the test verdict on O=C1CCCC2=C1C(c1ccccc1Br)N=C(Nc1nc3ccccc3o1)N2 (stereo not given) ?
Reply: False

Task item: Hey, what did the test say about COc1cc2c(cc1OC)/C(=C/c1ccc(O)cc1)C(=O)N2 ?
Reply: False

Task item: For CN1CCC(c2c(O)cc(O)c3c(=O)cc(-c4ccccc4Cl)oc23)C(O)C1 (stereo not given) , what call appears in the results of this test?
Reply: True

Task item: For O=C1CCCC2=C1C(c1ncccc1Br)N=C(Nc1nc3ccccc3o1)N2 (stereo not given) , which call appears in the assay record?
Reply: False

Task item: GET /call?item= Cc1cc(Nc2nn(-c3ccccc3)c(=O)c3ccccc23)n[nH]1 returns the recorded outcome of this test.
Reply: True

Task item: I would be grateful if you could indicate the recorded call for O=C1/C(=C/c2ccc(O)c(O)c2)Oc2ccccc21 .
Reply: False

Task item: Would you mind telling me which call this test gave OC[C@H]1O[C@@H](O[C@@H]2OC=C[C@H]3[C@H](O)[C@@H]4O[C@]4(CO)[C@@H]23)[C@H](O)[C@@H](O)[C@@H]1O ?
Reply: False

Task item: Record lookup: outcome of this test for c1ccc(-c2[nH]ncc2-c2ccnc3ccccc23)nc1 ?
Reply: False
